Recorded collision cross section (N2) values for a group of molecules are listed next.
Conditions: [M+H]+; instrument: TW; calibrated with phosphatidylcholines (ESI+) and phosphatidylethanolamines (ESI-)
MEASURE: collision cross section (N2) (Å²)

>>> assay_value("CCCCCCCCCCCCCCCCCCCCC(=O)OC(COC(=O)CCCCCCCCCCCCCC)COP(=O)([O-])OCC(O)COC(=O)C(N)CCCC[NH3+] (stereo not given)")
308.7
>>> assay_value("CCCCCC/C=C\\CCCCCCCCCC(=O)OCC(COP(=O)([O-])OCC(O)COC(=O)C(N)CCCC[NH3+])OC(=O)CCCCCCCCC/C=C\\CCCCCC (stereo not given)")
302.8
>>> assay_value("CCCCCC/C=C/CCCCCCCCCC(=O)OCC(COP(=O)([O-])OCC(O)COC(=O)C(N)CCCC[NH3+])OC(=O)CCCCCCCCCCCCCCC (stereo not given)")
299.6
>>> assay_value("CCCCCCCCCCCCCCCCCC(=O)OC(COC(=O)CCCCCCCCCCCCCC)COP(=O)([O-])OCC(O)COC(=O)C(N)CCCC[NH3+] (stereo not given)")
299.8
>>> assay_value("CCCCCC/C=C\\CCCCCCCCCC(=O)OCC(COP(=O)([O-])OCC(O)COC(=O)C(N)CCCC[NH3+])OC(=O)CCCCCCCC/C=C\\CCCCCC (stereo not given)")
300.8

====

Settings: [M-H]-; instrument: DT; single field, calibrated with ESI Low Concentration Tuning Mix (Agilent)
Recorded collision cross section (N2), one value per entry.
MEASURE: collision cross section (N2)

>>> assay_value("O=C(O)CC(O)C(=O)O (stereo not drawn) [MALATE]")
"115.9 Å²"
>>> assay_value("CC(C)(COP(=O)(O)OP(=O)(O)OC[C@H]1O[C@@H](n2cnc3c(N)ncnc32)[C@H](O)[C@@H]1OP(=O)(O)O)[C@@H](O)C(=O)NCCC(=O)NCCSC(=O)C[C@@](C)(O)CC(=O)O [3-HYDROXY-3-METHYLGLUTARYL-COA]")
"261.9 Å²"
>>> assay_value("O=c1[nH]c(=O)c2nccnc2[nH]1 [2,4-DIHYDROXYPTERIDINE]")
"125.3 Å²"
>>> assay_value("O=c1ccn([C@@H]2O[C@H](CO)[C@@H](O)[C@H]2O)c(=O)[nH]1")
"150.7 Å²"
>>> assay_value("O=C(O)CCCCCCCCCCCO [OMEGA-HYDROXYDODECANOATE]")
"152.6 Å²"
>>> assay_value("N[C@@H](CCC(=O)O)C(=O)O [GLUTAMATE]")
"123.8 Å²"
>>> assay_value("CC(C)C[C@H](N)C(=O)O")
"130.6 Å²"
>>> assay_value("CC(=O)OCC(=O)[C@@]1(O)CC[C@H]2[C@@H]3CCC4=CC(=O)CC[C@]4(C)[C@H]3[C@@H](O)C[C@@]21C [CORTISOL 21-ACETATE]")
"196.3 Å²"

====

Details: [M-2H]2-; instrument: TW; calibrated with phosphatidylcholines (ESI+) and phosphatidylethanolamines (ESI-), doubly charged cardiolipins calibrated with poly-DL-…
MEASURE: collision cross section (N2) (Å²)

>>> assay_value("CCCCCC/C=C\\CCCCCCCC(=O)OCC(COP(=O)(O)OCC(O)COP(=O)(O)OCC(COC(=O)CCCCCCCCCCCCCC)OC(=O)CCCCCCC/C=C\\CCCCCC)OC(=O)CCCCCCC/C=C\\CCCCCC (centres undefined)")
394.68
>>> assay_value("CCCCCC/C=C\\CCCCCCCC(=O)OCC(COP(=O)(O)OCC(O)COP(=O)(O)OCC(COC(=O)CCCCCCCC1CC1CCCCCC)OC(=O)CCCCCCC/C=C\\CCCCCC)OC(=O)CCCCCCC/C=C\\CCCCCCCC (centres undefined)")
404.19
>>> assay_value("CCCCCC/C=C\\CCCCCCCC(=O)OC(COC(=O)CCCCCCCC1CC1CCCCCCCC)COP(=O)(O)OCC(O)COP(=O)(O)OCC(COC(=O)CCCCCCCCCCCCCCC)OC(=O)CCCCCCC/C=C\\CCCCCCCC (centres undefined)")
408.91
>>> assay_value("CCCCCC/C=C\\CCCCCCCC(=O)OC(COC(=O)CCCCCCCC1CC1CCCCCC)COP(=O)(O)OCC(O)COP(=O)(O)OCC(COC(=O)CCCCCCCCCCCCCCC)OC(=O)CCCCCCC/C=C\\CCCCCCCC (centres undefined)")
404.47
